experimental_target: 5-hydroxytryptamine receptor 2C (Homo sapiens) (UniProt P28335)
Sequence (P28335 whole entry): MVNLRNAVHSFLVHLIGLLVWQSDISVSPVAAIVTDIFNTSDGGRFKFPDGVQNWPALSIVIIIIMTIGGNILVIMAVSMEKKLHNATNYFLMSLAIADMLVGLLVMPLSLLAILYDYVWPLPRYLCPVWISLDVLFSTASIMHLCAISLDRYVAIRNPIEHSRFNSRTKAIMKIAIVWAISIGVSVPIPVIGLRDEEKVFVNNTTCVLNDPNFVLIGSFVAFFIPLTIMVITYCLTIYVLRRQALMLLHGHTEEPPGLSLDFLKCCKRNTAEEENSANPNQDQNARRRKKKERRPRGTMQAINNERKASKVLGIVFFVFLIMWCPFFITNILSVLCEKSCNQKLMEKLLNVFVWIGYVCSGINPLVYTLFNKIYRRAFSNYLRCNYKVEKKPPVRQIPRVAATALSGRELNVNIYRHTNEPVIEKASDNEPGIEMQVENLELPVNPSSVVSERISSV
test_details: Displacement of [3H]mesulergine from human 5-HT2CR expressed in Flp-In HEK cell membranes at 10 uM incubated for 90 mins under dark condition by microbeta scintillation counting method relative to control
experimental_setup: HEK293
Catalogue of compounds with associated inhibition

Answered cases to consult:
CNC(=O)[C@H]1O[C@@H](n2cnc3c(N)ncnc32)[C@H](O)[C@@H]1O; < 10%
O[C@@H]1[C@H](O)[C@@H]2C[C@@H]2[C@H]1n1cnc2c(NCc3cccc(Cl)c3)nc(Cl)nc21; > 50%

inhibition in this record for CC(C)[C@@H](Nc1nc(Cl)nc2c1ncn2[C@H]1[C@H](O)[C@H](O)[C@]2(CO)C[C@H]12)C1CC1 : > 50%

Entry under test: COC(=O)[C@@]12C[C@@H]1[C@@H](n1cnc3c(NC(C4CC4)C4CC4)nc(Cl)nc31)[C@H](O)[C@@H]2O . Its inhibition was > 50%
